molecular target: Bfl-1 (Homo sapiens, UniProt Q16548); construct: lacking their C-terminal transmembrane domains (approximately last 20 amino-acids); made in house; host or cells: XL-1 Blue cells (E. coli), pGEX 4T-1; assay: Bfl-1 fluorescence polarization assay (FPA/FP), competition with FITC-Bid BH3 peptide; type: binding; details: Tables 3-5; read-out: Bfl-1 FP IC50
Sequence (Q16548 1-155 limits assumed): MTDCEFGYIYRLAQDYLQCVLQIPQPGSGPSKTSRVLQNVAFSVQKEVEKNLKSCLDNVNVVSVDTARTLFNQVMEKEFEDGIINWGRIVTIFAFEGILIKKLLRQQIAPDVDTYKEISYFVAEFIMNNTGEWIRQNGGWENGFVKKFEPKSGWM

>  <smi>
O=C1C(Cl)=C(N2CCN(c3ncccn3)CC2)C(=O)N1c1ccc(Cl)c(Cl)c1

>  <IC50, nM>
1900

$$$$
>  <smi>
CN1CCN(C2=C(Cl)C(=O)N(c3cc(Cl)cc(Cl)c3)C2=O)CC1

>  <IC50, nM>
2440

$$$$
>  <smi>
C[C@H]1CN(C2=C(Cl)C(=O)N(c3ccc(Cl)c(Cl)c3)C2=O)CCN1

>  <IC50, nM>
1320

$$$$
>  <smi>
C[C@@H]1CN(C2=C(Cl)C(=O)N(c3ccc(Cl)c(Cl)c3)C2=O)CCN1

>  <IC50, nM>
1160

$$$$
>  <smi>
O=C1C(Cl)=C(N2CCOCC2)C(=O)N1c1ccc(Cl)c(Cl)c1

>  <IC50, nM>
1410

$$$$
>  <smi>
CN1CCN(C2=C(Cl)C(=O)N(c3ccc(Cl)c(Cl)c3)C2=O)CC1

>  <IC50, nM>
750

$$$$

###

IC50 reference
target: Bfl-1 (Homo sapiens); construct: lacking their C-terminal transmembrane domains (approximately last 20 amino-acids); made in house; host or cells: XL-1 Blue cells (E. coli), pGEX 4T-1; test: Bfl-1 fluorescence polarization assay (FPA/FP), competition with FITC-Bid BH3 peptide; format: binding; settings: Tables 3-5; read-out: Bfl-1 FP IC50

>  <compound>
O=C1C(Cl)=C(N2CCN(Cc3ccc4c(c3)OCO4)CC2)C(=O)N1c1ccc(Cl)c(Cl)c1

>  <IC50>
4.07 µM

$$$$
>  <compound>
CN1CCN(C2=C(Cl)C(=O)N(c3cccc(Cl)c3)C2=O)CC1

>  <IC50>
2.15 µM

$$$$
>  <compound>
CC1C(=O)NCCN1C1=C(Cl)C(=O)N(c2ccc(Cl)c(Cl)c2)C1=O (centres unmarked)

>  <IC50>
5.63 µM

$$$$
>  <compound>
O=C1C(Cl)=C(N2CCN(C/C=C/c3ccccc3)CC2)C(=O)N1c1ccc(Cl)c(Cl)c1

>  <IC50>
0.59 µM

$$$$
>  <compound>
Cc1ccc(Cl)c(N2C(=O)C(Cl)=C(N3CCN(C)CC3)C2=O)c1Cl

>  <IC50>
23.9 µM

$$$$
>  <compound>
O=C1C(Cl)=C(N2CCN(CCO)CC2)C(=O)N1c1ccc(Cl)c(Cl)c1

>  <IC50>
0.56 µM

$$$$
>  <compound>
CN1CCN(C2=C(Cl)C(=O)N(c3ccc(Cl)cc3Cl)C2=O)CC1

>  <IC50>
2.62 µM

$$$$
>  <compound>
CN1CCN(C2=C(Cl)C(=O)N(c3cccc(Cl)c3Cl)C2=O)CC1

>  <IC50>
8.74 µM

$$$$

###

molecular target: Bfl-1 (Homo sapiens); construct: lacking their C-terminal transmembrane domains (approximately last 20 amino-acids); made in house; host or cells: XL-1 Blue cells (E. coli), pGEX 4T-1; experiment: Bfl-1 fluorescence polarization assay (FPA/FP), competition with FITC-Bid BH3 peptide; type: binding; details: Tables 7-8; Avg where the cell lists several determinations; read-out: Bfl-1 FPA IC50
Please respond with Fulfilled when measured IC50 is strictly beneath 10 µM, and with Not fulfilled in all other cases.

>  <compound>
Cc1cc(NC(=O)CCCS(=O)(=O)c2nc(-c3cccs3)cc(C(F)(F)F)n2)no1 [Compound C071-0649]

>  <discrete label>
Not fulfilled

$$$$
>  <compound>
CS(=O)(=O)c1nc(-c2cccs2)cc(C(F)(F)F)n1 [Compound C164-0005]

>  <discrete label>
Fulfilled

$$$$
>  <compound>
COc1ccccc1-c1cc(C(F)(F)F)nc(S(=O)(=O)CCCC(=O)N2CCOCC2)n1 [Compound 7990929]

>  <discrete label>
Not fulfilled

$$$$
>  <compound>
CCOC(=O)CCS(=O)(=O)c1nc(-c2ccccc2)cc(C(F)(F)F)n1 [Compound 7914223]

>  <discrete label>
Fulfilled

$$$$
>  <compound>
COc1ccc(-c2cc(C(F)(F)F)nc(S(C)(=O)=O)n2)c(OC)c1 [Compound C164-0014]

>  <discrete label>
Not fulfilled

$$$$
>  <compound>
COc1ccccc1-c1cc(C(F)(F)F)nc(S(=O)(=O)CCCC(=O)N2CCCCC2C)n1 (stereo not drawn) [Compound C071-0367]

>  <discrete label>
Not fulfilled

$$$$
>  <compound>
CN1CCN(C2=C(Cl)C(=O)N(c3ccc(Cl)c(Cl)c3)C2=O)CC1 [CID-1180676]

>  <discrete label>
Fulfilled

$$$$
>  <compound>
CS(=O)(=O)c1nc(-c2ccco2)cc(C(F)(F)F)n1 [Compound C164-0006]

>  <discrete label>
Fulfilled

$$$$
>  <compound>
CC(C)c1nnc(NC(=O)CCS(=O)(=O)c2nc(-c3cccs3)cc(C(F)(F)F)n2)s1 [ASN05990586]

>  <discrete label>
Not fulfilled

$$$$
